Attribution: ChEMBL document CHEMBL1156829

Assay: NOVARTIS: Cytotoxicity against human hepatocellular carcinoma cell line (Huh7)
Type: toxicity, cell-based, Huh-7
Conditions: Huh7 cells (hepatocellular carcinoma cell line)
Please go through the items and note down their CC50.

// known answers, use as guide
CCOC(=O)c1cnc2ccc(CC)cc2c1O: > 100 µM
CC1=NOC(=O)/C1=C/c1ccc(-c2ccc([N+](=O)[O-])cc2)o1: > 10 µM
Fc1ccc(CN2CCc3nc(N4CCCCC4)sc3C2)cc1F: > 100 µM
COc1ccc2c(c1)-c1c(ssc1=S)C(C)(C)N2C(=O)c1cccc(Cl)c1: > 100 µM
CCN(Cc1ccccc1)Cc1c(O)ccc2oc(C)c(C(=O)Nc3ccc(C)cc3C)c12: 42.3 µM

Value sought for every listed compound: CC50.
1. COc1ccc(-c2c[n+](CC(=O)O[C@H]3C[C@H](C)CC[C@@H]3C(C)C)c3n2CCCCC3)cc1
2. CCC(C)NC(=O)CSc1nnc(-c2cccnc2)n1-c1ccc(Cl)cc1 (stereo unspecified)
3. CN1CCN(c2cc(-c3cccnc3)nc(-c3ccncc3)n2)CC1
4. CCCCCCCC[n+]1c(C)n(CC)c2ccc(Cl)cc21
5. CC(C)NC(=O)c1ccc(OC2CCN(CC3CCCCC3)CC2)c(Cl)c1
6. N#Cc1c2c(c(N3CCN(c4ccccn4)CC3)n3c1nc1ccccc13)CCC2

["16.5 µM", "> 10 µM", "> 9.55 µM", "54.9 µM", "65.9 µM", "> 100 µM"]
